The origin of these recorded values is patent US11802133B2.

System under test: MAGL (recombinant wild-type) (Homo sapiens (Human), UniProt Q99685)
Sequence (Q99685 whole entry, species assumed): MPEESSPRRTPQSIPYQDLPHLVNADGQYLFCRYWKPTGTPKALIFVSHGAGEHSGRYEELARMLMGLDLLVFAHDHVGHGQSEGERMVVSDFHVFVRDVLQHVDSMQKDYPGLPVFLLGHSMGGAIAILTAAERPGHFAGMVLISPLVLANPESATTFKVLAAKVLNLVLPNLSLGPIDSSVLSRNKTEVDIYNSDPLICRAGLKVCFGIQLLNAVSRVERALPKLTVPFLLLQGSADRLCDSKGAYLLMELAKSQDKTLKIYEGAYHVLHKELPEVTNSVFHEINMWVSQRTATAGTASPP
Assay procedure: 4-NPA assay: MAGL inhibitory activity by hydrolysis of 4-nitrophenylacetate (absorbance at 405 nm)
Condition: measured in 4-NPA assay (footnote [a]); 1 nM MAGL, 300 μM 4-nitrophenylacetate
Measured property: pIC50
pIC50 here is simply -log10 of the concentration when that concentration is written in mol/L.

# Compound, Value measured
records = [
    ("CC(C)(C)c1cnn(CC2CCN(C(=O)N3CC[C@@H]4OCC(=O)N[C@@H]4C3)CC2)c1", 6.45),
    ("O=C1CO[C@H]2CCN(C(=O)N3CCC(CN4CCC(F)(F)CC4)CC3)C[C@H]2N1", 5.89),
]

Suppose we examine the compound CC1C(OCc2ccc(C(F)(F)F)cc2)CN1C(=O)N1CC[C@@H]2OCC(=O)N[C@@H]2C1 (some centres unmarked) [Example 117] ; what pIC50 value has been reported?
8.00

Now this one: CC(C)(C)c1csc(CC2CCN(C(=O)N3CC[C@@H]4OCC(=O)N[C@@H]4C3)CC2)n1 [Example 1]
7.40

Now this one: N#Cc1ccc(OCC2CCN(C(=O)N3CC[C@@H]4OCC(=O)N[C@@H]4C3)CC2)c(Cl)c1
7.92
